# Test system: Lasiodiplodia theobromae
# test-details: Antifungal activity against Lasiodiplodia theobromae infected Cavendish banana fruit assessed as reduction in crown rot incubated for 15 min followed by compound washout measured after 2 weeks in absence of surfactant APSA 80 relative to control
# Format: functional
# Set-up: scale not given: the % may be the effect or the level left
Provide the reported Activity of each item.
Quick reminder: number only, in %, skip the unit.

Task item: What measured Activity is associated with O=C([O-])O.[Na+] [SODIUM BICARBONATE] on Lasiodiplodia theobromae?
Reply: 25

Task item: What measured Activity is associated with [Na+].[O-]Cl [SODIUM HYPOCHLORITE] on Lasiodiplodia theobromae?
Reply: 50

Task item: What measured Activity is associated with [Ca+2].[Cl-].[Cl-] [CALCIUM CHLORIDE] on Lasiodiplodia theobromae?
Reply: 0

Task item: What measured Activity is associated with [Cl-].[Na+] [SODIUM CHLORIDE] on Lasiodiplodia theobromae?
Reply: 0

Task item: What measured Activity is associated with O=C([O-])[O-].[Na+].[Na+] [SODIUM CARBONATE] on Lasiodiplodia theobromae?
Reply: 0

====

# System: Thielaviopsis paradoxa
# test-details: Antifungal activity against Ceratocystis paradoxa assessed as reduction in colony diameter at 10 to 160 g/l incubated for 15 min followed by compound washout measured after 7 days in presence of surfactant APSA 80 relative to control
# Type: functional
# Parameters: scale not given: the % may be the effect or the level left
Criterion: Activity strictly less than 70%. Met: 1 (yes). Not met: 0 (no).

Task item: Take the compound O=C([O-])O.[Na+] [SODIUM BICARBONATE] and say whether its Activity is less than 70%.
Reply: 0 (no)

Task item: Take the compound O=C([O-])[O-].[Na+].[Na+] [SODIUM CARBONATE] and say whether its Activity is less than 70%.
Reply: 0 (no)

Task item: Take the compound [Cl-].[Na+] [SODIUM CHLORIDE] and say whether its Activity is less than 70%.
Reply: 0 (no)

Task item: Take the compound [Ca+2].[Cl-].[Cl-] [CALCIUM CHLORIDE] and say whether its Activity is less than 70%.
Reply: 1 (yes)

Task item: Take the compound [Na+].[O-]Cl [SODIUM HYPOCHLORITE] and say whether its Activity is less than 70%.
Reply: 1 (yes)

====

# System: Fusarium verticillioides
# test-details: Antifungal activity against Fusarium verticillioides infected Cavendish banana fruit assessed as reduction in crown rot incubated for 15 min followed by compound washout measured after 2 weeks in presence of surfactant APSA 80 relative to control
# Format: functional
# Design: concentration or dose not given beside the values
Provide the reported Activity of each item.
Quick reminder: number only, in %, skip the unit.

Task item: What measured Activity is associated with [Ca+2].[Cl-].[Cl-] [CALCIUM CHLORIDE] on Fusarium verticillioides?
Reply: 50

Task item: What measured Activity is associated with O=C([O-])[O-].[Na+].[Na+] [SODIUM CARBONATE] on Fusarium verticillioides?
Reply: 25

Task item: What measured Activity is associated with [Cl-].[Na+] [SODIUM CHLORIDE] on Fusarium verticillioides?
Reply: 10

Task item: What measured Activity is associated with O=C([O-])O.[Na+] [SODIUM BICARBONATE] on Fusarium verticillioides?
Reply: 0

Task item: What measured Activity is associated with [Na+].[O-]Cl [SODIUM HYPOCHLORITE] on Fusarium verticillioides?
Reply: 50
